# Test details: Non-compartmental pharmacokinetics of midazolam and metabolites in plasma after discontinuation of MDZ infusion (LC-MS/MS)
# Type: in vivo, human
# Test parameters: plasma, 0 to 24 h after discontinuation of MDZ infusion; relative concentration; arithmetic mean ± SD
Property measured: AUClast

Compound	AUClast
Cc1ncc2n1-c1ccc(Cl)cc1C(c1ccccc1F)=NC2O[C@@H]1O[C@H](C(=O)O)[C@@H](O)[C@H](O)[C@H]1O (stereo partly shown) [4-OH-MDZ-Glu, 4-hydroxymidazolam glucuronide]	29.8 ± 24.4 h*ppm
Cc1ncc2n1-c1ccc(Cl)cc1C(c1ccccc1F)=NC2O (stereo not shown) [4-OH-MDZ, 4-hydroxymidazolam]	172.5 ± 268.0 h*ppm
OCc1ncc2n1-c1ccc(Cl)cc1C(c1ccccc1F)=NC2 [1-OH-MDZ, 1-hydroxymidazolam]	1117.2 ± 1643.5 h*ppm

// next item, AUClast requested
# input compound: O=C(O)[C@H]1O[C@@H](OCc2ncc3n2-c2ccc(Cl)cc2C(c2ccccc2F)=NC3)[C@H](O)[C@@H](O)[C@@H]1O [1-OH-MDZ-Glu, 1-hydroxymidazolam glucuronide] ; wanted: its AUClast
9193.0 ± 13,958.4 h*ppm

# credit: paper PMC10894853
